Values from PubChem BioAssay (NCI)

System: MDA-MB-435 melanoma
Experiment: NCI-60 one-dose screen, 48 h (100 = growth as untreated, 0 = no growth, -100 = all killed)
Conditions: 10 µM unless noted
This is part of a sample that, as a whole, favours compounds with a hit. Of some 83,000 tested, about 20% had one in any assay.
measurement label: growth (%)
Express your answer in %, writing the number without its unit.

### Prompt Query growth on MDA-MB-435 melanoma for COc1cc(C2CC(c3ccc(Cl)cc3)=NN2C=O)ccc1OS(=O)(=O)c1ccc(C)cc1 (centres undefined)
### Response 90.2

### Prompt Query growth on MDA-MB-435 melanoma for `CCCCCCCCCCCCCCCc1cc(O)ccc1[N+](=O)[O-]`
### Response 96.8

### Prompt Query growth on MDA-MB-435 melanoma for `C=CCN(CCOC(=O)c1ccc([N+](=O)[O-])cc1)CCOC(=O)c1ccc([N+](=O)[O-])cc1`
### Response 107

### Prompt Query growth on MDA-MB-435 melanoma for `Cc1ccc(NC(=O)c2nc(S(C)(=O)=O)oc2-c2ccc(F)cc2)cc1Nc1ccc2ncn(C)c(=O)c2c1`
### Response 69.4

### Prompt Query growth on MDA-MB-435 melanoma for CNCc1cccc2c1OCCOCCOCCC(C)S(=O)(=O)c1ccc(cc1)-c1cnc(N)c(n1)C(=O)N2 (centres undefined)
### Response 42.8

### Prompt Query growth on MDA-MB-435 melanoma for COc1ccc(C2C3=C(COC3=O)N(CCO)c3cc(OC)c(OC)cc32)cc1 (centres undefined)
### Response 112

### Prompt Query growth on MDA-MB-435 melanoma for `c1ccc(-c2[nH]c3ccccc3c2-c2ccccc2)cc1`
### Response 84.6

### Prompt Query growth on MDA-MB-435 melanoma for `CC(C)c1ccc(Cn2ccc3c4c(N)nc(NC5CC5)nc4ccc32)cc1`
### Response -97

### Prompt Query growth on MDA-MB-435 melanoma for `CCOc1cccc(/C=N/NC(=O)c2ccc(Nc3ccnc(C(F)(F)F)c3)cc2)c1O`
### Response 40.2
